assay: Single-dose bioavailability of L-dC in the rat; conditions: Sprague-Dawley, plasma, po, 10 mg/kg
property label: Tmax
Include the unit right after the number.

I'd like to know its Tmax. The compound in question is Nc1ccn([C@@H]2CC(O)[C@H](CO)O2)c(=O)n1 (stereo partly drawn) [L-dC, 2′-Deoxy-β-L-cytidine]
1 h

* * *

Test: Single dose bioavailability of L-dC in the cynomologus monkey
Format: in vivo, cynomolgus monkey
Conditions: cynomolgus monkey, in vivo; L-dC 10 mg/kg single IV dose, n=3, mean; read-out: t1/2 of L-dC (converted)
Procedure: The pharmacokinetics of L-dC following IV and oral administration of L-dC to cynomolgus monkeys was determined.
property label: half-life (h)
Please state the figure in h; there is no need to write the unit.

Which half-life is reported for this compound? Nc1ccn([C@@H]2CC(O)[C@H](CO)O2)c(=O)n1 (stereo partly shown)
1.59
